// data source = ChEMBL document CHEMBL1201862

system: SW-620; test: NCI tumour cell line growth inhibition, 48 h
The source made the active and inactive calls. No stated cut-off is given here; in the data, active = GI50 up to about 1.1 µM and inactive = higher.
Consider the following compounds; for each one, report its GI50.

compound	readout name	experimental value
CCn1cc(C(=O)O)c(=O)c2cc(F)c(N3CCN(CN4C(=O)/C(=N\NC(=O)c5ccncc5)c5cc(Cl)ccc54)CC3)cc21	GI50	23.4 µM (inactive)

Please state GI50 for every compound in the list that follows.
1. Cc1ccccc1NC(=O)c1cc(-c2ccc([N+](=O)[O-])cc2)nc(S)n1
2. Cc1nc(=O)c2cc(CN(C)c3ccc(C(=O)N[C@@H](CCC(=O)O)C(=O)O)s3)ccc2[nH]1

### Response
> 100 µM (inactive)
> 100 µM (inactive)

Required: GI50, one value per compound below.
1. CC1=C[C@@H]2Cc3nc4cc(Cl)ccc4c(N)c3[C@H](C1)C2
2. CCC1(C(=O)OC(C)(C)C)OC12C(C)CCCC2C (stereo not given)

### Response
1: 11 µM (inactive); 2: 29.5 µM (inactive)
